System: L1210 leukemia ip in BDF1 mice, survival T/C
test.protocol: NCI In Vivo Anticancer Drug Screen. Data for tumor model L1210 Leukemia (intraperitoneal) in B6D2F1 (BDF1) mice
settings: endpoint: mean survival time; dose: 100.0 mg/kg/injection; schedule: Q04DX003 (ip); vehicle: saline with Tween-80; higher = longer survival
Toxic doses and inconclusive results are not listed.
Quick reference for T/C among some compounds

C/C(=C/C(=O)O)c1cc2ccccc2n1C
100 % of control
Cc1cc(C)c2cc(C=O)cc-2c(C)c1
103 % of control
Cc1cnc2c(N)nn(-c3ccccc3)c2n1
95 % of control
O=[N+]([O-])c1ccc(Cl)c2c([N+](=O)[O-])cccc12
94 % of control
CCOC(=O)c1cc(C(=O)O)[nH]c(=O)c1C#N
97 % of control

Exam item: Determine from records and report T/C for CCOC(=O)c1ccc(C(=O)OCC)nc1
Marked response: 101 % of control

* * *

System: L1210 leukemia ip in BDF1 mice, survival T/C
test.protocol: NCI In Vivo Anticancer Drug Screen. Data for tumor model L1210 Leukemia (intraperitoneal) in B6D2F1 (BDF1) mice
settings: endpoint: mean survival time; dose: 25.0 mg/kg/injection; schedule: Q01DX009 (ip); vehicle: Klucel (hydroxypropylcellulose) (HPC); higher = longer survival
Toxic doses and inconclusive results are not listed.
value.type: T/C

CC(C)=CCC(N)CC=C(C)C
102 % of control
CN(C)/N=C/c1ccc(N(C)C)cc1
100 % of control
CC(C)NNC(=O)c1ccc(Cl)cc1
92 % of control
CCC(C)N(C)/N=N/c1nc[nH]c1C(N)=O (configuration not stated)
124 % of control
O=[N+]([O-])c1cc(Cl)cc2c1nc(NCCO)c1ccccc12
95 % of control
O=C1OC2CC3CC1C2C3 (configuration not stated)
96 % of control
C[N+](C)(C)c1ccc(/C(C#N)=N/O)cc1
100 % of control
CN1CCN(c2ccc(Cl)cc2)CC1
97 % of control

Exam item: Determine from records and report T/C for O=C1NC(=O)C2C3OC(C(Cl)C3Cl)C12 (configuration not stated)
Marked response: 97 % of control

Exam item: Determine from records and report T/C for CSc1nc(N)nc(N)n1
Marked response: 97 % of control

Exam item: Determine from records and report T/C for CNC(=S)N/N=C(/C)CCc1c(C)nn(C(=S)NC)c1C
Marked response: 100 % of control

Exam item: Determine from records and report T/C for CCCCCCCCCCCCCCCCCCOS(=O)(=O)c1ccc(C)cc1
Marked response: 95 % of control

* * *

System: L1210 leukemia ip in BDF1 mice, survival T/C
test.protocol: NCI In Vivo Anticancer Drug Screen. Data for tumor model L1210 Leukemia (intraperitoneal) in B6D2F1 (BDF1) mice
settings: endpoint: mean survival time; dose: 150.0 mg/kg/injection; schedule: Q01DX001 (ip); vehicle: saline; higher = longer survival
Toxic doses and inconclusive results are not listed.
Quick reference for T/C among some compounds

Consider the reported T/C for these compounds:
CCc1ccc(C)[n+](C)c1
95 % of control
COc1ccc2c(c1O)C1(CCN(C)C)CC(=O)CCC1C=C2 (configuration not stated)
100 % of control
Nc1cc2ncccc2c2ncccc12
102 % of control

Okay, next one:
Exam item: Determine from records and report T/C for CN(C)C(=O)c1cc(C(=O)N(C)C)c[n+](Cc2c(Cl)cccc2Cl)c1
Marked response: 106 % of control

* * *

Tested on: L1210 leukemia ip in BDF1 mice, survival T/C
test.protocol: NCI In Vivo Anticancer Drug Screen. Data for tumor model L1210 Leukemia (intraperitoneal) in B6D2F1 (BDF1) mice
settings: endpoint: mean survival time; dose: 300.0 mg/kg/injection; schedule: Q01DX001 (ip); vehicle: saline; higher = longer survival
Inconclusive results and toxic doses are left out.
value.type: T/C

Consider the reported T/C for these compounds:
O=S1(=O)C2CCCC1CCC2
104 % of control
CCOc1ccc([N+](=O)[O-])cc1N(C)C(C)=O
107 % of control
CCN(CC)CCNc1ccc(C)c2sc3ccccc3c(=O)c12
105 % of control

Okay, next one:
Exam item: Determine from records and report T/C for CC(C)=CCNc1nc(=O)[nH]c2nc[nH]c12
Marked response: 88 % of control

* * *

System: L1210 leukemia ip in BDF1 mice, survival T/C
test.protocol: NCI In Vivo Anticancer Drug Screen. Data for tumor model L1210 Leukemia (intraperitoneal) in B6D2F1 (BDF1) mice
settings: endpoint: mean survival time; dose: 50.0 mg/kg/injection; schedule: Q01DX009 (ip); vehicle: saline with Tween-80; higher = longer survival
Inconclusive results and toxic doses are left out.
value.type: T/C

Consider the reported T/C for these compounds:
NC(=O)c1ncn[nH]1
113 % of control
O=C(O)CC(Br)C(=O)c1ccccc1 (stereo not drawn)
95 % of control
Cc1c2ccccc2cc2c1ccc1cccc(F)c12
96 % of control

Exam item: Determine from records and report T/C for CC12CC[C]([Hg][I])(CC1)C2(C)C
Marked response: 91 % of control

Exam item: Determine from records and report T/C for CC1CCCC(C)N1NC1=NCCO1 (stereo not drawn)
Marked response: 98 % of control

Exam item: Determine from records and report T/C for CC(Br)C(=O)Nc1ccc(C(=O)O)c(O)c1 (stereo not drawn)
Marked response: 98 % of control

Exam item: Determine from records and report T/C for CC(=O)NNC(=O)Nc1cccc(C(F)(F)F)c1
Marked response: 94 % of control

Exam item: Determine from records and report T/C for O=C(Nc1ccc2c(c1)OCO2)O/N=C\c1ccccn1
Marked response: 103 % of control

Exam item: Determine from records and report T/C for CC(C(=O)C(Cc1ccccc1)c1ccccc1)C1CCC2C3C(OC=O)CC4CC(OC=O)CCC4(C)C3CC(OC=O)C12C (stereo not drawn)
Marked response: 90 % of control

* * *

System: L1210 leukemia ip in BDF1 mice, survival T/C
test.protocol: NCI In Vivo Anticancer Drug Screen. Data for tumor model L1210 Leukemia (intraperitoneal) in B6D2F1 (BDF1) mice
settings: endpoint: mean survival time; dose: 150.0 mg/kg/injection; schedule: Q01DX009 (ip); vehicle: saline; higher = longer survival
Toxic doses and inconclusive results are not listed.
Quick reference for T/C among some compounds

Consider the reported T/C for these compounds:
Cc1ccc(S(=O)(=O)OCCN(CCOS(=O)(=O)c2ccc(C)cc2)c2ccc(F)cc2)cc1
123 % of control
O=P(Oc1ccc(OP(=O)(N2CC2)N2CC2)cc1)(N1CC1)N1CC1
101 % of control
CCCCCCCC/C=C\CCCCCCCC(=O)NCCOC
99 % of control

Exam item: State recorded T/C with L1210 leukemia ip in BDF1 mice, survival T/C, entry COc1ccc(C(=O)c2cc3cccc(OC)c3o2)cc1OC , no comment.
Marked response: 92 % of control

* * *

Test system: L1210 leukemia ip in BDF1 mice, survival T/C
test.protocol: NCI In Vivo Anticancer Drug Screen. Data for tumor model L1210 Leukemia (intraperitoneal) in B6D2F1 (BDF1) mice
settings: endpoint: mean survival time; dose: 100.0 mg/kg/injection; schedule: Q01DX001 (ip); vehicle: saline; higher = longer survival
Toxic doses and inconclusive results are not listed.
value.type: T/C

Consider the reported T/C for these compounds:
CC(N)Cc1ccccc1 (stereo unspecified)
102 % of control
COc1ccc(CN2CCCN(Cc3ccc(OC)cc3OC)C2c2ccncc2)c(OC)c1
97 % of control
O=C(Nc1cc2ccccc2nc1-c1ccccc1)c1ccccc1
92 % of control

Okay, next one:
Exam item: Determine from records and report T/C for CCOC(=O)CCC(=O)C(=O)OCC
Marked response: 92 % of control

* * *

Test system: L1210 leukemia ip in BDF1 mice, survival T/C
test.protocol: NCI In Vivo Anticancer Drug Screen. Data for tumor model L1210 Leukemia (intraperitoneal) in B6D2F1 (BDF1) mice
settings: endpoint: mean survival time; dose: 400.0 mg/kg/injection; schedule: Q04DX003 (ip); vehicle: saline; higher = longer survival
Toxic doses and inconclusive results are not listed.
value.type: T/C

Consider the reported T/C for these compounds:
C/C(CCC(=O)OC(C)(C)C)=N\N(C)C
111 % of control
CCCCCSC
100 % of control
CCC(C(N)=O)N1C(=O)C2C3CCC(O3)C2C1=O (stereo not given)
101 % of control
CCCCSCC(N)C(=O)OC (stereo not given)
97 % of control
NC(=O)C(O)c1ccccc1 (stereo not given)
100 % of control
CCN(CC)C(=O)/C=C/C(=O)N(CC)CC
100 % of control
CC1(C(N)=O)OCCO1
100 % of control
C[Si](C)O[Si](C)C
101 % of control

Exam item: Determine from records and report T/C for CC(=O)NCCC(C)C
Marked response: 95 % of control

Exam item: Determine from records and report T/C for O=S1(=O)C=Cc2ccccc21
Marked response: 88 % of control

Exam item: Determine from records and report T/C for CCCCCC(N)CC(=O)O (stereo not given)
Marked response: 105 % of control

Exam item: Determine from records and report T/C for COc1ccc(/C=N/NC(=O)c2ccccc2OC)cc1
Marked response: 102 % of control

Exam item: Determine from records and report T/C for OC(CNc1ccccc1)CN1CCOCC1 (stereo not given)
Marked response: 94 % of control

Exam item: Determine from records and report T/C for c1ccc2cc(Nc3ccc(Nc4ccc5ccccc5c4)cc3)ccc2c1
Marked response: 100 % of control

Exam item: Determine from records and report T/C for CCNc1nnnn1CC
Marked response: 101 % of control
